Reference source for all entries: ChEMBL document CHEMBL1125382

# Species on record: Oryctolagus cuniculus
# TEST_DESCRIPTION: Vasorelaxant effects in circumferential strips of potassium-depolarized rabbit aorta. (IC50 in rabbit aorta strips contracted with KCl(95% confidence interval))
# Assay type: functional, organism-based
# STUDY_CONDITIONS: Oryctolagus cuniculus, Aorta
READOUT_TYPE: IC50

Exercise: Recall and state the measured IC50 for `COc1ccc([C@@H]2Cc3ccccc3N(CCN(C)C)C(=O)[C@@H]2OC(C)=O)cc1.Cl` .
Key: 4700 nM

Exercise: Recall and state the measured IC50 for COc1ccc([C@@H]2Cc3c(cccc3C(F)(F)F)N(CCN(C)C)C(=O)[C@@H]2OC(C)=O)cc1.Cl (stereo in doubt) .
Key: 150 nM

Exercise: Recall and state the measured IC50 for `COc1ccc([C@@H]2Cc3c(Cl)cccc3N(CCN(C)C)C(=O)[C@@H]2OC(C)=O)cc1` .
Key: 1600 nM

Exercise: Recall and state the measured IC50 for COc1ccc([C@@H]2Cc3cc(C(F)(F)F)ccc3N(CCN(C)C)C(=O)[C@@H]2OC(C)=O)cc1.Cl (stereo in doubt) .
Key: 1600 nM

---

# Species: Oryctolagus cuniculus
# TEST_DESCRIPTION: In vitro evaluation for the vasorelaxant effects in circumferential strips of potassium-depolarized rabbit aorta. (IC50 in rabbit aorta strips contracted with KCl
# Type: functional
# STUDY_CONDITIONS: Oryctolagus cuniculus, Aorta
pIC50: −log10 of the molar value.
Binary call on pIC50: y from 6 upward, n beneath that.

Exercise: Could you tell me if the measured pIC50 of `COc1ccc([C@@H]2Cc3ccc(Cl)cc3N(CCN(C)C)C(=O)[C@@H]2OC(C)=O)cc1` reaches 6 or more?
Key: n

Exercise: Could you tell me if the measured pIC50 of COc1ccc([C@H]2Cc3c(cccc3C(F)(F)F)N(CCN(C)C)C(=O)[C@@H]2OC(C)=O)cc1.Cl (relative stereo) reaches 6 or more?
Key: n

Exercise: Could you tell me if the measured pIC50 of COc1ccc(C2Sc3cc(OC)ccc3N(CCN(C)C)C(=O)C2OC(C)=O)cc1 (centres undefined) reaches 6 or more?
Key: y

Exercise: Could you tell me if the measured pIC50 of `CNCCN1C(=O)[C@H](O)[C@H](c2ccc(OC)cc2)Cc2cc(C(F)(F)F)ccc21` reaches 6 or more?
Key: n

Exercise: Could you tell me if the measured pIC50 of `COc1ccc([C@@H]2Cc3c(cccc3C(F)(F)F)N(C[C@@H]3CCCN3C)C(=O)[C@@H]2OC(C)=O)cc1` reaches 6 or more?
Key: y

Exercise: Could you tell me if the measured pIC50 of `COc1ccc([C@@H]2Cc3c(cccc3C(F)(F)F)N(CC(=O)O)C(=O)[C@@H]2OC(C)=O)cc1` reaches 6 or more?
Key: n

Exercise: Could you tell me if the measured pIC50 of `COc1ccc([C@@H]2Cc3c(cccc3C(F)(F)F)N(CCN(C)C)C(=O)[C@@H]2OC(C)=O)cc1.Cl` reaches 6 or more?
Key: y

---

# Species: Oryctolagus cuniculus
# TEST_DESCRIPTION: In vitro evaluation for the vasorelaxant effects in circumferential strips of potassium-depolarized rabbit aorta. (IC50 in rabbit aorta strips contracted with KCl
# Assay type: functional
READOUT_TYPE: pIC50
To interpret pIC50, take it as minus log10 of a concentration measured in moles per litre.

Exercise: Recall and state the measured pIC50 for COc1ccc([C@@H]2Sc3cc(Cl)ccc3N(CCN(C)C)C(=O)[C@@H]2OC(C)=O)cc1 [CLENTIAZEM] .
Key: 6.62

---

# System: Rattus norvegicus
# TEST_DESCRIPTION: In vivo evaluation for the percentage decrease in blood pressure at 135 umol/kg administered through oral route in spontaneously hypertensive rats and observed for 12-18 h.
# Type: functional
Give measured Decrease for each item. Keep answers brief.
Numeric answer only, unit % assumed.

Exercise: Recall and state the measured Decrease for COc1ccc([C@@H]2Cc3cc(C(F)(F)F)ccc3N(CCN(C)C)C(=O)[C@@H]2OC(C)=O)cc1.Cl (stereo in doubt) .
Key: 19

Exercise: Recall and state the measured Decrease for `COc1ccc([C@@H]2Cc3cc(C(F)(F)F)ccc3N(CCN(C)C)C(=O)[C@@H]2O)cc1.Cl` .
Key: 14

Exercise: Recall and state the measured Decrease for COc1ccc([C@H]2Cc3c(cccc3C(F)(F)F)N(CCN(C)C)C(=O)[C@H]2OC(C)=O)cc1.Cl (stereo in doubt; 4p) .
Key: 7

Exercise: Recall and state the measured Decrease for `COc1ccc([C@@H]2Cc3c(cccc3C(F)(F)F)N(C[C@@H]3CCCN3)C(=O)[C@@H]2OC(C)=O)cc1` .
Key: 38

Exercise: Recall and state the measured Decrease for `COc1ccc([C@@H]2Cc3c(cccc3C(F)(F)F)N(CC(=O)O)C(=O)[C@@H]2OC(C)=O)cc1` .
Key: 4

Exercise: Recall and state the measured Decrease for `COc1ccc([C@@H]2Cc3cc(OC)ccc3N(CCN(C)C)C(=O)[C@@H]2OC(C)=O)cc1.Cl` .
Key: 10

Exercise: Recall and state the measured Decrease for COc1ccc([C@H]2Cc3c(cccc3C(F)(F)F)N(CCN(C)C)C(=O)[C@@H]2OC(C)=O)cc1.Cl (relative stereo) .
Key: 11

Exercise: Recall and state the measured Decrease for `COc1ccc([C@@H]2Cc3c(cccc3C(F)(F)F)N(C[C@H]3CCCN3)C(=O)[C@@H]2O)cc1` .
Key: 18

Exercise: Recall and state the measured Decrease for `COc1ccc([C@@H]2Cc3c(OC)cccc3N(CCN(C)C)C(=O)[C@@H]2OC(C)=O)cc1.Cl` .
Key: 1

Exercise: Recall and state the measured Decrease for `COc1ccc([C@@H]2Cc3c(cccc3C(F)(F)F)N(C[C@@H]3CCCN3)C(=O)[C@@H]2O)cc1` .
Key: 27

Exercise: Recall and state the measured Decrease for COc1ccc([C@H]2Cc3cc(Cl)ccc3N(CCN(C)C)C(=O)[C@H]2OC(C)=O)cc1 (relative stereo) .
Key: 9

Exercise: Recall and state the measured Decrease for `CNCCN1C(=O)[C@H](O)[C@H](c2ccc(OC)cc2)Cc2cc(C(F)(F)F)ccc21` .
Key: 14

Exercise: Recall and state the measured Decrease for COc1ccc([C@@H]2Sc3cc(Cl)ccc3N(CCN(C)C)C(=O)[C@@H]2OC(C)=O)cc1 (relative stereo) [CLENTIAZEM] .
Key: 24

Exercise: Recall and state the measured Decrease for `COc1ccc([C@@H]2Cc3c(cccc3C(F)(F)F)N(C[C@@H]3CCCN3C)C(=O)[C@@H]2OC(C)=O)cc1` .
Key: 29

Exercise: Recall and state the measured Decrease for `COc1ccc([C@@H]2Cc3c(cccc3C(F)(F)F)N(CCN(C)C)C(=O)[C@@H]2O)cc1` .
Key: 28

Exercise: Recall and state the measured Decrease for `COc1ccc([C@@H]2Cc3c(cccc3C(F)(F)F)N(CCO)C(=O)[C@@H]2OC(C)=O)cc1` .
Key: 4

Exercise: Recall and state the measured Decrease for `CNCCN1C(=O)[C@H](O)[C@H](c2ccc(OC)cc2)Cc2c1cccc2C(F)(F)F` .
Key: 22

Exercise: Recall and state the measured Decrease for `COc1ccc([C@@H]2Cc3c(Cl)cccc3N(CCN(C)C)C(=O)[C@@H]2OC(C)=O)cc1` .
Key: 11

Exercise: Recall and state the measured Decrease for `CNCCN1C(=O)[C@H](OC(C)=O)[C@H](c2ccc(OC)cc2)Cc2cc(C(F)(F)F)ccc21` .
Key: 31

Exercise: Recall and state the measured Decrease for `COc1ccc([C@@H]2Cc3ccc(Cl)cc3N(CCN(C)C)C(=O)[C@@H]2OC(C)=O)cc1` .
Key: 4

Exercise: Recall and state the measured Decrease for `COc1ccc([C@H]2Cc3cc(Cl)ccc3N(CCN(C)C)C(=O)[C@@H]2OC(C)=O)cc1` .
Key: 12

Exercise: Recall and state the measured Decrease for COc1ccc([C@@H]2Sc3ccccc3N(CCN(C)C)C(=O)[C@@H]2OC(C)=O)cc1 (relative stereo) [DILTIAZEM] .
Key: 17

Exercise: Recall and state the measured Decrease for COc1ccc([C@H]2Cc3cc(C(F)(F)F)ccc3N(CCN(C)C)C(=O)[C@H]2OC(C)=O)cc1.Cl (stereo in doubt) .
Key: 7
